Listed here: items and their measured shrunken log2 fold change.
# Test system: Escherichia coli TOP10
# method.description: shrunken log2 fold change of peptide-encoding DNA abundance (4.5 h post-induction vs induction); higher = less antimicrobial activity (less host growth inhibition)
# condition.details: time post-induction: 4.5 h; library: site-saturation at positions 5, 18, 19, 20

// solved cases for shrunken log2 fold change follow
- primary.sequence: "RRIRARPPRLPRPRPRPWFMPRP"
  measurement.target: "Escherichia coli TOP10"
  result: -0.108
- primary.sequence: "RRIRPRPPRLPRPRPRPNLDPRP"
  measurement.target: "Escherichia coli TOP10"
  result: 0.109
- primary.sequence: "RRIRLRPPRLPRPRPRPHLSPRP"
  measurement.target: "Escherichia coli TOP10"
  result: -0.0728
- primary.sequence: "RRIRERPPRLPRPRPRPGTEPRP"
  measurement.target: "Escherichia coli TOP10"
  result: -0.049
- primary.sequence: "RRIRQRPPRLPRPRPRPEQKPRP"
  measurement.target: "Escherichia coli TOP10"
  result: 0.039

// query GET shrunken log2 fold change where system = Escherichia coli TOP10 and item = RRIRGRPPRLPRPRPRPIVEPRP
// result 0.194

// query GET shrunken log2 fold change where system = Escherichia coli TOP10 and item = RRIRRRPPRLPRPRPRPKEPPRP
// result 0.293

// query GET shrunken log2 fold change where system = Escherichia coli TOP10 and item = RRIRLRPPRLPRPRPRPNDAPRP
// result 0.229

// query GET shrunken log2 fold change where system = Escherichia coli TOP10 and item = RRIRSRPPRLPRPRPRPVDMPRP
// result 0.0294

###

Listed here: items and their measured shrunken log2 fold change.
# Tested on: Escherichia coli TOP10
# method.description: shrunken log2 fold change of peptide-encoding DNA abundance (4.5 h post-induction vs induction); higher = less antimicrobial activity (less host growth inhibition)
# condition.details: time post-induction: 4.5 h; library: site-saturation at positions 5, 18, 19, 20
Form field (numeric): enter value without unit.

// solved cases for shrunken log2 fold change follow
- primary.sequence: "RRIRGRPPRLPRPRPRPRVGPRP"
  shrunken log2 fold change: 1.02
- primary.sequence: "RRIRDRPPRLPRPRPRPLQKPRP"
  shrunken log2 fold change: -0.0982
- primary.sequence: "RRIRTRPPRLPRPRPRPWNEPRP"
  shrunken log2 fold change: 0.00902
- primary.sequence: "RRIRMRPPRLPRPRPRPRGYPRP"
  shrunken log2 fold change: 0.0597
- primary.sequence: "RRIRARPPRLPRPRPRPSRNPRP"
  shrunken log2 fold change: -0.0178
- primary.sequence: "RRIRWRPPRLPRPRPRPWKWPRP"
  shrunken log2 fold change: -0.0893
- primary.sequence: "RRIRQRPPRLPRPRPRPNVVPRP"
  shrunken log2 fold change: 0.0298
- primary.sequence: "RRIRCRPPRLPRPRPRPTNTPRP"
  shrunken log2 fold change: -0.364
- primary.sequence: "RRIRARPPRLPRPRPRPSYRPRP"
  shrunken log2 fold change: -0.228
- primary.sequence: "RRIRARPPRLPRPRPRPTWIPRP"
  shrunken log2 fold change: 0.291

// query GET shrunken log2 fold change where system = Escherichia coli TOP10 and item = RRIRKRPPRLPRPRPRPYKYPRP
// result -0.00882

// query GET shrunken log2 fold change where system = Escherichia coli TOP10 and item = RRIRRRPPRLPRPRPRPVTEPRP
// result 0.285

// query GET shrunken log2 fold change where system = Escherichia coli TOP10 and item = RRIRQRPPRLPRPRPRPWHWPRP
// result 0.107

// query GET shrunken log2 fold change where system = Escherichia coli TOP10 and item = RRIRYRPPRLPRPRPRPSWRPRP
// result -0.137

// query GET shrunken log2 fold change where system = Escherichia coli TOP10 and item = RRIRMRPPRLPRPRPRPPPCPRP
// result 1.73

// query GET shrunken log2 fold change where system = Escherichia coli TOP10 and item = RRIRLRPPRLPRPRPRPTCTPRP
// result -0.0583

// query GET shrunken log2 fold change where system = Escherichia coli TOP10 and item = RRIRPRPPRLPRPRPRPTVDPRP
// result 0.0336

// query GET shrunken log2 fold change where system = Escherichia coli TOP10 and item = RRIRFRPPRLPRPRPRPFWYPRP
// result -0.102

// query GET shrunken log2 fold change where system = Escherichia coli TOP10 and item = RRIRIRPPRLPRPRPRPFSSPRP
// result -0.181

// query GET shrunken log2 fold change where system = Escherichia coli TOP10 and item = RRIRRRPPRLPRPRPRPGSTPRP;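 also: peptides expressed intracellularly from a pBAD plasmid library in pooled LB shake-flask culture, induced with 0.3% L-arabinose, DNA abundance read by NGS, three biological replicates, DESeq2 with apeglm shrinkage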
// result 0.1
